Each recorded value in this set is attributed to patent US20040126856A1.

- measured target: T1, factor IXaWT (wild-type recombinant factor IX activated by factor XIa) (human, UniProt P00740 47-190; P00740 227-461, gamma-carboxyglutamic acid residues in the Gla domain (residues 1-40, 12 Gla; normal Gla content))
- T1 construct: Two-chain, disulfide-linked protease; also called IXWT
- T1 sequence (P00740 47-190, form in doubt, chain 1 of 2): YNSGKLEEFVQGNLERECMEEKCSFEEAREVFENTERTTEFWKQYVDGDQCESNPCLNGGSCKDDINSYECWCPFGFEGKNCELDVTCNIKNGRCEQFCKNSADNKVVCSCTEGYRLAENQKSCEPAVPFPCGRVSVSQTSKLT
- T1 sequence (P00740 227-461, form in doubt, chain 2 of 2): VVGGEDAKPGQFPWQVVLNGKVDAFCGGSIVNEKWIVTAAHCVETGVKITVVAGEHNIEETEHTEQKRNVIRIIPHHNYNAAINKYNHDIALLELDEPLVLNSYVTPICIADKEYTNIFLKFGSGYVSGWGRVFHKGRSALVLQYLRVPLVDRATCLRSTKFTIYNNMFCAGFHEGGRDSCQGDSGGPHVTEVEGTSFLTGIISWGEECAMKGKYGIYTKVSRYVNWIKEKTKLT
- protocol notes: peptide inhibition of IXaWT:A2 in tenase assay (FIG. 5); IC50 converted by Cheng-Prusoff; apparent Kdpeptide
pKd: −log10 of the molar value.
metric name: pKd

[
  {
    "binder": "SVDQRGNQ [synthetic peptide corresponding to the A2 subunit residues 558-565 (Ser-Val-Asp-Gln-Arg-Gly-Asn-Gln)]",
    "result number": 5.40
  }
]
